# measurement protocol: NCI Yeast Anticancer Drug Screen. Data for the bub3 strain (AID 167)
# experimental conditions: S. cerevisiae bub3 mutant strain, at 50.0 µM, active compounds read high
About 79,000 compounds went through this panel and 15% of them were active in at least one assay; those are over-represented in the sample as a whole.
Below is a list of entries, each paired with its recorded growth inhibition value.
Respond numerically; units are % and should not be typed.

What growth inhibition value was documented for this compound, COC(=O)COc1ccccc1[N+](=O)[O-] ?
5.25

What growth inhibition value was documented for this compound, Cc1nc2cccc([N+](=O)[O-])c2c(O)[n+]1C ?
-9.05

What growth inhibition value was documented for this compound, OCC1CC2c3ccccc3C1c1ccccc12 (configuration not stated) ?
-28.4

What growth inhibition value was documented for this compound, CC1SC2(C(=O)N(CN3CCCCC3)c3ccccc32)N(c2ccccc2)C1=O (configuration not stated) ?
3.9

What growth inhibition value was documented for this compound, NC(=S)NNCC(=O)CC(O)(C(F)(F)F)C(F)(F)Cl (configuration not stated) ?
21.4

What growth inhibition value was documented for this compound, COc1ccc(C(=O)c2ccc(C)c3c(C)cccc23)cc1 ?
-7.9

What growth inhibition value was documented for this compound, O=C(O)CCC(=O)CC1CCCCC1 ?
-8.45
